ASSAY TEXT: photoluminescence quantum yield (fraction); solvent given as SMILES
EXPERIMENTAL CONTEXT: in C1CCCCC1
Each entry below carries its recorded photoluminescence quantum yield.
REPORTED METRIC: photoluminescence quantum yield

INSERT INTO measurements (compound, reported_metric, data_value) VALUES
  ('F[B-]1(F)n2c(nc(Br)c2Br)-c2cccc[n+]21', 'photoluminescence quantum yield', 0.47),
  ('CN(C)c1ccc(-c2c(/C=C3/C=Cc4ccccc4N3Cc3ccccc3)c(=O)c2=O)cc1', 'photoluminescence quantum yield', 0.0146),
  ('CN(C)c1ccc2nc(-c3ccc(C(=O)Nc4ccccc4)cc3)sc2c1', 'photoluminescence quantum yield', 0.89),
  ('CCC(C)(C)c1ccc2c(c1)C(CCOC)(CCOC)c1cc(-c3ccc(-c4ccc5c(c4)C(CCOC)(CCOC)c4cc(C(C)(C)CC)ccc4-5)cc3)ccc1-2', 'photoluminescence quantum yield', 0.9),
  ('COc1ccc(-c2ccc(-c3ccc(OC)cc3)cc2)cc1', 'photoluminescence quantum yield', 0.64),
  ('O=C1c2ccccc2-c2cccc(O)c21', 'photoluminescence quantum yield', 0.0129),
  ('CB1C=Cc2ccc3ccccc3c2N1', 'photoluminescence quantum yield', 0.7),
  ('CCn1c2ccccc2c2ccc(C#N)cc21', 'photoluminescence quantum yield', 0.12),
  ('CCc1c(C)c2n(c1C)[B-](F)(F)[N+]1=C(C=C3c4ccccc4-c4ccccc43)C=CC1=C2C', 'photoluminescence quantum yield', 0.73),
  ('Cc1ccc(C2=C3C=CC(c4ccccc4)=[N+]3[B-](F)(F)n3c(Cl)ccc32)cc1', 'photoluminescence quantum yield', 0.076),
  ('Cc1cccc(-c2cccc(C)c2)c1', 'photoluminescence quantum yield', 0.28),
  ('CN(C)c1ccc(C(=O)Nc2ccc([N+](=O)[O-])cc2)cc1', 'photoluminescence quantum yield', 0.0001),
  ('COC(=O)C(Cc1ccc2oc(-c3ccc(-n4c5ccccc5c5ccccc54)cc3)nc2c1)NC(=O)OC(C)(C)C (centres undefined)', 'photoluminescence quantum yield', 0.94),
  ('CN(C)c1cc(C#N)c(N(C)C)c(C#N)c1', 'photoluminescence quantum yield', 0.37),
  ('C#CCNC1=C2C=C(c3cc4n(c3)[B-](F)(F)[N+]3=CC=CC3=C4c3c(C)cc(C)cc3C)C(C)=[N+]2[B-](F)(F)n2c(C)ccc21', 'photoluminescence quantum yield', 0.42),
  ('Cc1ccccc1C1=C2C=c3c(oc4ccc(C(C)(C)C)cc34)=[N+]2[B-](F)(F)n2c1cc1c3cc(C(C)(C)C)ccc3oc12', 'photoluminescence quantum yield', 0.89),
  ('Cc1cc(C)c(B(c2c(C)cc(C)cc2C)c2cc3cc(N(C)C)c4ccccc4c3c3c2ccc2ccccc23)c(C)c1', 'photoluminescence quantum yield', 0.36),
  ('c1ccc2c(-c3ccc4sc5ccc(-c6c7ccccc7cc7ccccc67)cc5c4c3)c3ccccc3cc2c1', 'photoluminescence quantum yield', 0.47),
  ('Cc1ccc(/C(C#N)=C/c2cc(/C=C(\C#N)c3ccc(C)cc3)c(-c3ccc(N(c4ccccc4)c4ccccc4)cc3)cc2-c2ccc(N(c3ccccc3)c3ccccc3)cc2)cc1', 'photoluminescence quantum yield', 0.093),
  ('C(#Cc1ccccc1)C1=Cc2ccc3ccccc3c2NB1c1ccccc1', 'photoluminescence quantum yield', 0.72),
  ('O=C1c2ccccc2-c2ccc(N3CCN(c4ccccc4)CC3)c3cccc1c23', 'photoluminescence quantum yield', 0.424),
  ('c1ccc(-c2ccc(-c3ccc4c(c3)CCCO4)cc2)cc1', 'photoluminescence quantum yield', 0.62),
  ('C/C(=C\c1ccc(C)cc1)c1nc2ccccc2s1', 'photoluminescence quantum yield', 0.003),
  ('N#Cc1ccc(N)cc1', 'photoluminescence quantum yield', 0.13),
  ('CN(C)c1ccc2nc(-c3ccc(C(=O)OC(C)(C)C)cc3)sc2c1', 'photoluminescence quantum yield', 0.84),
  ('Cc1ccc(/C=C/c2nc3ccccc3s2)cc1', 'photoluminescence quantum yield', 0.02),
  ('CN(C)c1c2ccccc2cc2ccccc12', 'photoluminescence quantum yield', 0.008),
  ('Oc1ccccc1', 'photoluminescence quantum yield', 0.09),
  ('O=C1c2ccccc2-c2ccccc21', 'photoluminescence quantum yield', 0.0004);

Reference for the values: the Deep4Chem optical property database
